The reported numbers originate from patent US20230357447A1.

Biological target: T1, Anti-CD28 scFv (VH-linker 1-VL) (biotinylated (site not stated))
T1 construct: biotinylated and captured on neutravidin coated plates in the phage ELISA
T1 sequence (scFv, as listed by the source): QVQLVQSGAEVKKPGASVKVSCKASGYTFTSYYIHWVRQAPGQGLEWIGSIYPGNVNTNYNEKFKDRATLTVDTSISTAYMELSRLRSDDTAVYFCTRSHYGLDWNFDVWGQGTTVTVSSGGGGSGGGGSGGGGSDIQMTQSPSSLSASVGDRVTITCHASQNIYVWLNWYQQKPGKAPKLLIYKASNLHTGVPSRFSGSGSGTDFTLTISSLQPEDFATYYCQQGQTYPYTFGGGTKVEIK
Test: phage ELISA, scFv wells pre-incubated with soluble CD28 (competitor); background signal 0.062
Listed binders paired with reported Phage binding ELISA CD28 scFv signal in presence of CD28
Observable: Phage binding ELISA CD28 scFv signal in presence of CD28

Binder: MDWCPRDMWSVCFS [Phage-32]
Experimental Value: 0.207
//
Binder: MDWCPINLWDECFS [Phage-52]
Experimental Value: 0.096
//
Binder: MDWCPRYLWTECFN [Phage-100]
Experimental Value: 0.549
//
Binder: MHWCPMDQWSNCFN [Phage-56]
Experimental Value: 0.084
